# Test system: cyclododecanone monooxygenase (CDMO)
# test name: Substrate specificity of cloned CDMO (relative activity towards cyclic ketones)
# Assay type: biochemical, Pseudomonas putida strain HI-70
# cond: ketone as substrate, cyclododecanone = 100%
readout name: relative activity (%)
Report only the number, with the unit % understood.

Some compounds with recorded relative activity:
compound	system	unit spec	relative activity
O=C1CCCCCCCCCCCC1 [cyclotridecanone]	cyclododecanone monooxygenase (CDMO)	%	138
O=C1CCCCCCCCCCCCCC1 [cyclopentadecanone]	cyclododecanone monooxygenase (CDMO)	%	144
O=C1CCCCCCCCC1 [cyclodecanone]	cyclododecanone monooxygenase (CDMO)	%	10
O=C1CCCCCCCCCC1 [cycloundecanone]	cyclododecanone monooxygenase (CDMO)	%	56

Please report the recorded relative activity for O=C1CCCCCCCCCCC1 [cyclododecanone] .
100
